System: HepG2 cell line
Assay: In vitro toxicity study on HepG2 cell line (resazurin, viability and IC50)
Format: cell-based, human
Conditions: HepG2 cells, 12.5 μM lipid, 48 h post-treatment, resazurin, relative to ethanol vehicle controls
Protocol: The synthesized lipids were tested in term of in vitro transfection efficacy and toxicity on HeLa cells. In order to perform the mentioned biological tests, appropriate LNPs had to be formulated from the synthesized lipids. The formulation technique was different in Method A and B. The particle size, polydispersity index (PDI) and zeta potential of resulting LNPs were determined by means of Dynamic Light Scattering technique (DLS). […]
Measured Viability (%) at different lipid concentrations, mean of individual entries
Property Label: Viability (%) at different lipid concentrations, mean

Compound	Units Text	Obs Value
CCCCC/C=C\C/C=C\CCCCCCCCOC(CCCCCCC/C=C\C/C=C\CCCCC)O[Si](C)(C)OCCCCCCN(CCO)CCO (centres unmarked) [Example 48]	%	102.2
CCCCCCCC/C=C\CCCCCCCC(OCC(CCCCCC)CCCCCCCC)O[Si](C)(C)OCCCCCCN(CCO)CCO (centres unmarked) [Example 50]	%	97.6
CCCCC/C=C\C/C=C\CCCCCCCCOC(CCCCCCC/C=C\C/C=C\CCCCC)O[Si](C)(C)OCCCCCCN1CCCC1CO (centres unmarked) [Example 63]	%	96.4
CCCCCCCCC(CCCCCC)C(=O)OCCCCCCN(CCCCO)CCCCCCOC(=O)C(CCCCCC)CCCCCCCC (centres unmarked) [ALC-0315, reference compound]	%	97.4
CCCCC/C=C\C/C=C\CCCCCCCCOC(CCCCCCC/C=C\C/C=C\CCCCC)O[Si](C)(C)OCCCCCCN(C)[C@H](CO)Cc1ccccc1 (some centres unmarked) [Example 77]	%	99.9
CCCCCCCC/C=C\CCCCCCCCOC(=O)C(C)(C)CC(OCCCCCCCC/C=C\CCCCCCCC)O[Si](C)(C)OCCCCCCN(CCO)CCO (centres unmarked) [Example 84]	%	99.3
CCCCCCCC/C=C\CCCCCCCCOC(=O)C(C)(C)CCC(OCCCCCCCC/C=C\CCCCCCCC)O[Si](C)(C)OCCCCCCN1CCOCC1 (centres unmarked) [Example 95]	%	97.8
CCCCC/C=C\C/C=C\CCCCCCCCO[Si](C)(C)OC(CCCCCCC/C=C\C/C=C\CCCCC)OCCCN(C)C (centres unmarked) [Example 80]	%	98.68
